tested on: SK-OV-3 cells; test: Growth inhibition of ovarian cancer cell line SK-OV-3 (MTT assay, cell survival); type: cell-based; conditions: Homo sapiens, drug concentration that results in 50% cell survival, 72 hrs incubation, reported as ranges
propertyLabel: CC50

Answered examples (3):
1. CN[C@@H](C)C(=O)N[C@H](C(=O)N1CC[C@@H]2[C@H]1[C@@H](c1c[nH]c3cc(F)ccc13)CN2c1ncccn1)[C@@H](C)O    < 100 nM
2. CN[C@@H](C)C(=O)N[C@H](C(=O)N1CC[C@@H]2[C@H]1[C@@H](c1c[nH]c3cc(F)ccc13)CN2C1CCCC1)C1CCCCC1    < 100 nM
3. CCN1C[C@H](c2c[nH]c3cc(F)ccc23)[C@@H]2[C@H]1CCN2C(=O)[C@@H](NC(=O)[C@H](C)NC)C1CCCCC1    100 to 1000 nM

Quick note, CC50 for "C[C@H](N)C(=O)N[C@H](C(=O)N1CC[C@H]2NC[C@H](c3c[nH]c4cc(F)ccc34)[C@H]21)C1CCCCC1" landed at > 10000 nM

Quick note, CC50 for "CN[C@@H](C)C(=O)N[C@H](C(=O)N1CC[C@@H]2[C@H]1[C@@H](c1c[nH]c3cc(F)ccc13)CN2C1CCCC1)C(C)C" landed at 100 to 1000 nM

###

tested on: SK-OV-3 cells; assay: Growth inhibition of ovarian cancer cell line SK-OV-3 (MTT assay, cell survival); format: cell-based; settings: Homo sapiens, drug concentration that results in 50% cell survival, 72 hrs incubation, reported as ranges
Each entry below carries its recorded CC50.

Answered examples (5):
1. CN[C@@H](C)C(=O)N[C@@H](COC)C(=O)N1CC[C@@H]2[C@H]1[C@@H](c1c[nH]c3cc(F)ccc13)CN2C1CCCC1    1000 to 10000 nM
2. CN[C@@H](C)C(=O)N[C@H](C(=O)N1CC[C@H]2NC[C@H](c3c[nH]c4cc(F)ccc34)[C@H]21)[C@@H](C)O    1000 to 10000 nM
3. CN[C@@H](C)C(=O)N[C@H](C(=O)N1CC[C@@H]2[C@H]1[C@@H](c1c[nH]c3cc(F)ccc13)CN2C1CCCC1)C(C)(C)C    < 100 nM
4. CNC(C)C(=O)NC(C(=O)N1CC(c2c[nH]c3cc(F)ccc23)C2C1CCN2C(=O)C(NC(=O)C(C)NC)C1CCCCC1)C1CCCCC1 (stereo not drawn)    < 100 nM
5. CN[C@@H](C)C(=O)N[C@H](C(=O)N1CC[C@@H]2[C@H]1[C@@H](c1c[nH]c3cc(F)ccc13)CN2C1CCCC1)[C@@H](C)O    100 to 1000 nM

Quick note, CC50 for "CN[C@@H](C)C(=O)N[C@@H](CO)C(=O)N1CC[C@@H]2[C@H]1[C@@H](c1c[nH]c3cc(F)ccc13)CN2C(C)=O" landed at 1000 to 10000 nM

Quick note, CC50 for "CN[C@@H](C)C(=O)N[C@@H](CO)C(=O)N1CC[C@@H]2[C@H]1[C@H](c1c[nH]c3cc(F)ccc13)CN2S(C)(=O)=O" landed at > 10000 nM

Quick note, CC50 for "CN[C@@H](C)C(=O)N[C@H](C(=O)N1CC[C@H]2NC[C@H](c3c[nH]c4cc(F)ccc34)[C@H]21)C(C)C" landed at < 100 nM

Quick note, CC50 for "CN[C@@H](C)C(=O)N[C@H](C(=O)N1C[C@@H](O)[C@H]2NC[C@H](c3c[nH]c4cc(F)ccc34)[C@H]21)C1CCCCC1" landed at 100 to 1000 nM

Quick note, CC50 for "CN[C@@H](C)C(=O)N[C@H](C(=O)N1CC[C@H]2NCC[C@H]21)C1CCCCC1" landed at > 10000 nM

Quick note, CC50 for "CN[C@@H](C)C(=O)N[C@H](C(=O)N1CC[C@@H]2[C@H]1[C@H](c1c[nH]c3cc(F)ccc13)CN2C1CCCC1)C(C)(C)C" landed at 1000 to 10000 nM

Quick note, CC50 for "CN[C@@H](C)C(=O)N[C@H](C(=O)N1CC[C@@H]2[C@H]1[C@@H](c1c[nH]c3cc(F)ccc13)CN2Cc1ncc(C)s1)C1CCCCC1" landed at < 100 nM
